Test system: CCRF-CEM
Assay: NCI tumour cell line growth inhibition, 48 h
Calls of active or inactive are those of the source. Rule as the data show it: active = GI50 up to about 1.1 µM and inactive = higher.
The compounds listed here are annotated with their GI50.
readout.kind: GI50

Cc1c2ccccc2cc2cccc[n+]12    31.9 µM (inactive)
O=c1c2ccccc2n2c(-c3ccc(O)cc3)nnc2n1-c1ccccc1    14.8 µM (inactive)
CC(=O)C1C(=O)C(=O)N(c2ccccc2C(C)C)C1=O (configuration not stated)    > 100 µM (inactive)
Cc1sc2nc(N(C)C)oc(=O)c2c1C    94.6 µM (inactive)
C=C=C(CC1CCCCC1=O)S(=O)(=O)c1ccccc1 (configuration not stated)    2.16 µM (inactive)
CCN(CC)C1=Nc2ccccc2-n2ccnc2C1    > 100 µM (inactive)
CCCCc1c(O)nc(Nc2nc3ccccc3[nH]2)[nH]c1=O    > 100 µM (inactive)

Origin of measurements: ChEMBL document CHEMBL1201862
